Catalogue of IC50 values
Tested on: NCI-H1373 cells
Assay: Anchorage-independent cell proliferation inhibitory action, NCI-H1373 spheroid three-dimensional culture
Format: cell-based, Human
Details: NCI-H1373 spheroid, six days, CellTiter Glo; read-out: IC50 (anchorage-independent cell proliferation inhibition)
Form field: result (number plus unit)

The following compounds have reported results that may help.
SMILES CODE	TEST SYSTEM	IC50
C=CC(=O)N1CC2(CCN(c3nc(OC4CCN(CC(C)(C)O)CC4)nc4c(OCC(F)(F)F)c(-c5c(C)ccc6[nH]ncc56)c(C=C)cc34)CC2)C1	NCI-H1373 cells	5.1 nM
C=CC(=O)N1CC2(CCN(c3nc(OC4CCN(CCOC)CC4)nc4c(OCC(F)(F)F)c(-c5c(C)ccc6[nH]ncc56)c(C5CC5)cc34)CC2)C1	NCI-H1373 cells	2.5 nM

Next item in the queue.
GET /value?item= "C=CC(=O)N1CC2(CCN(c3nc(OC4CCN(CCOCC)CC4)nc4c(OCC(F)(F)F)c(-c5c(C)ccc6[nH]ncc56)c(C=C)cc34)CC2)C1" &field=IC50 returns 8.8 nM

----------
Target: KRAS G12C/SOS/c-Raf complex (Homo sapiens, UniProt P01116, G12C)
Construct: Biotinylated AviTag-KRAS G12C (amino acid region 1-185, GDP)
Sequence (P01116 1-185 isoform P01116-2 G12C, one chain of several): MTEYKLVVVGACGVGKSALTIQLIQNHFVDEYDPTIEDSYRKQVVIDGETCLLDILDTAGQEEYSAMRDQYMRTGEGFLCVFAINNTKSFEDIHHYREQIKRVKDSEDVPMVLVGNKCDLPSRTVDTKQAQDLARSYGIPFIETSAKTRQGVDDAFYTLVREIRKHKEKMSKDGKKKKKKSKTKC
Experiment: KRAS G12C/SOS/c-Raf complex formation inhibitory action (TR-FRET)
Type: biochemical
Settings: one hour at room temperature, read-out: IC50 (KRAS G12C/SOS/c-Raf complex formation inhibition)
PROPERTY: IC50 (µM)
The figure you give is taken to be in µM; do not add the unit.

The following compounds have reported results that may help.
COMPOUND	IC50 / µM
C=CC(=O)N1CC2(CCN(c3nc(OC4CCN(CCOC(C)C)CC4)nc4c(OCC(F)(F)F)c(-c5c(C)ccc6[nH]ncc56)c(C=C)cc34)CC2)C1 [Example 47]	0.043
C=CC(=O)N1CC2(CCN(c3nc(OC4CCN(CCN5CCCC5)CC4)nc4c(OCC(F)(F)F)c(-c5c(C)ccc6[nH]ncc56)c(C=C)cc34)CC2)C1 [Example 73]	0.044
C=CC(=O)N1CC2(CCN(c3nc(OC[C@@H]4CCCN4C)nc4c(OCC(F)F)c(-c5c(C)ccc6[nH]ncc56)c(C5CC5)cc34)CC2)C1 [Ex 4]	0.035

Next item in the queue.
GET /value?item= C=CC(=O)N1CC2(CCN(c3nc(OC4CCN(C)CC4)nc4c(OCC)c(-c5c(C)ccc6[nH]ncc56)c(C=C)cc34)CC2)C1 [Ex 24] &field=IC50 returns 0.021

----------
Catalogue of IC50 values
System: NCI-H1373 cells
Assay: Anchorage-independent cell proliferation inhibitory action, NCI-H1373 spheroid three-dimensional culture
Format: cell-based, Human
Conditions: Homo sapiens, NCI-H1373, 144 h, read-out: IC50 (anchorage-independent cell proliferation inhibition)
The figure you give is taken to be in nM; do not add the unit.

SMILES CODE	IC50 (nM)
C=CC(=O)N1CC2(CCN(c3nc(OC4CCN(C5CC5)CC4)nc4c(OCC)c(-c5c(C)ccc6[nH]ncc56)c(C5CC5)cc34)CC2)C1	6
C=CC(=O)N1CC2(CCN(c3nc(OC[C@@H]4CCCN4C)nc4c(OC5CCC5)c(-c5c(C)ccc6[nH]ncc56)c(C=C)cc34)CC2)C1	14
C=CC(=O)N1CC2(CCN(c3nc(OC4CCN(CCN5CCOCC5)CC4)nc4c(OCC(F)(F)F)c(-c5c(C)ccc6[nH]ncc56)c(C5CC5)cc34)CC2)C1	7.3
C=CC(=O)N1CC2(CCN(c3nc(OC4CCN(CC5CCOCC5)CC4)nc4c(OCC(F)(F)F)c(-c5c(C)ccc6[nH]ncc56)c(C=C)cc34)CC2)C1	7.6
C=CC(=O)N1CC2(CCN(c3nc(OC4CCN(C(C)C)CC4)nc4c(OCC)c(-c5c(C)ccc6[nH]ncc56)c(C=C)cc34)CC2)C1	11

Next item in the queue.
GET /value?item= "C=CC(=O)N1CC2(CCN(c3nc(OC4CCN(C)CC4)nc4c(OC5CCC5)c(-c5c(C)ccc6[nH]ncc56)c(C=C)cc34)CC2)C1" &field=IC50 returns 12
